- TEST METHOD NOTES: chemical genetic growth profiling, strain panel (AID 1159580);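 also: tested at 20 µM; growth read once vehicle control cultures reached saturation at 30 °C; 1 = growth at the plate median or of vehicle wells; lower values mean less growth of the strain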
- MEASUREMENT CONTEXT: S. cerevisiae deletion strains, growth OD, locus YGL078C, strain dbp3, active compounds read low
The whole screen tested about 5,500 compounds, of which about 2,000 (36%) were called active. Inconclusive results (about 18%) are left out. This is one part of the list.
ENDPOINT: normalized growth

The compound listed as CC(C(=O)O)c1ccc(C(=O)c2cccs2)cc1 (stereo unspecified) has a reported normalized growth of 1.01 (inactive)

The compound listed as C=C1CCC2C(CC2(C)C)C(=O)CCC1O (stereo unspecified) has a reported normalized growth of 1.04 (inactive)

The compound listed as C=C1CCC(C2CC(=O)OC2=O)C(=O)CCC2C1CC2(C)C (stereo unspecified) has a reported normalized growth of 1.03 (inactive)

The compound listed as C=C1CCC2C(CC2(C)C)C(=C)CC/C1=N\O (stereo unspecified) has a reported normalized growth of 0.922 (active)

The compound listed as CC1(C)O[C@@H]2CC3C4CCC5=CC(=O)CCC5(C)C4(F)C(O)CC3(C)[C@]2(C(=O)CCl)O1 (stereo partly specified) has a reported normalized growth of 0.993 (inactive)

The compound listed as COC(=O)C(C)c1ccc(C(=O)c2cccs2)cc1 (stereo unspecified) has a reported normalized growth of 0.968 (inactive)

---

- TEST METHOD NOTES: chemical genetic growth profiling, strain panel (AID 1159580);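 also: tested at 20 µM; growth read once vehicle control cultures reached saturation at 30 °C; 1 = growth at the plate median or of vehicle wells; lower values mean less growth of the strain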
- MEASUREMENT CONTEXT: S. cerevisiae deletion strains, growth OD, locus YDL074C, strain BRE1
The whole screen tested about 5,500 compounds, of which about 2,000 (36%) were called active. Inconclusive results (about 18%) are left out. Rule as the data show it: active = normalized growth mostly below about 0.91 (no sharp cut-off); inconclusive = no clear call, values can overlap the other calls; inactive = mostly above about 0.92. Some of the results follow.
Lab note: assign the record to one of yes (1) for active, no (0) for inactive

Ask | In this assay, the call recorded for C=C1CCC(OC(C)=O)/C(C)=C/C[C@@H]2[C@@H]1CC2(C)C (stereo partly specified) was what?
Reply | no (0)

Ask | In this assay, the call recorded for `NC[C@@H]1CC[C@@H](N)[C@@H](O[C@H]2[C@H](O)[C@@H](O[C@H]3O[C@H](CO)[C@@H](O)[C@H](N)[C@H]3O)[C@H](N)C[C@@H]2N)O1` was what?
Reply | no (0)

Ask | In this assay, the call recorded for C=C1CCC2C(CC2(C)C)C(=O)CCC1O (stereo unspecified) was what?
Reply | no (0)

Ask | In this assay, the call recorded for C=C1C(=O)O[C@@H]2C3O[C@]3(C)CC/C=C(\C)CC[C@@H]12 (stereo partly specified) was what?
Reply | yes (1)

Ask | In this assay, the call recorded for C/C1=C\CCC(=O)C2CC(C)(C)C2CC1 (stereo unspecified) was what?
Reply | no (0)

Ask | In this assay, the call recorded for C=C1CCC2C(CC2(C)C)C(=C)CC/C1=N\O (stereo unspecified) was what?
Reply | no (0)

Ask | In this assay, the call recorded for `Clc1cccc(Cl)c1NC1=NCCN1` was what?
Reply | no (0)

Ask | In this assay, the call recorded for `Cc1cccc(C)c1NC1=NCCCS1` was what?
Reply | no (0)

Ask | In this assay, the call recorded for CCCNC1CCc2nc(N)sc2C1 (stereo unspecified) was what?
Reply | no (0)

Ask | In this assay, the call recorded for C=C1CCC(C2CC(=O)OC2=O)C(=O)CCC2C1CC2(C)C (stereo unspecified) was what?
Reply | no (0)

Ask | In this assay, the call recorded for CO[C@@]1(NC(=O)CSCC#N)C(=O)N2C(C(=O)O)=C(CSc3nnnn3C)CSC21 (stereo partly specified) was what?
Reply | no (0)

---

- TEST METHOD NOTES: chemical genetic growth profiling, strain panel (AID 1159580);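 also: tested at 20 µM; growth read once vehicle control cultures reached saturation at 30 °C; 1 = growth at the plate median or of vehicle wells; lower values mean less growth of the strain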
- MEASUREMENT CONTEXT: S. cerevisiae deletion strains, growth OD, locus YNR052C, strain pop2, active compounds read low
The campaign covered roughly 5,500 compounds. About 2,000 (36%) were called active. Not shown: some 18% with an inconclusive outcome. This is one part of the list.
Kindly state normalized growth for each of the entries shown.
API doc: respond with a numeric literal and nothing else, no unit.

The compound listed as O=C(C1CCCCC1)N1CC(=O)N2CCc3ccccc3C2C1 (centres undefined) has a reported normalized growth of 1.01

The compound listed as O=C1[C@H](CCC(O)c2ccc(F)cc2)[C@@H](c2ccc(O)cc2)N1c1ccc(F)cc1 (some centres undefined) has a reported normalized growth of 0.973

The compound listed as CO/N=C(\C(=O)NC1C(=O)N2C(C(=O)O)=C(COC(N)=O)CSC12)c1ccco1 (centres undefined) has a reported normalized growth of 0.0644

The compound listed as `CO/N=C(\C(=O)N[C@@H]1C(=O)N2C(C(=O)O)=C(CSc3nc(=O)c(O)nn3C)CS[C@H]12)c1csc(N)n1` has a reported normalized growth of 0.986

The compound listed as `CC[C@H](C)C(=O)O[C@H]1C[C@@H](C)C=C2C=C[C@H](C)[C@H](CC[C@@H]3C[C@@H](O)CC(=O)O3)[C@H]21` has a reported normalized growth of 0.999

The compound listed as CC1C[C@H]2CC(=O)[C@H]3CCCN4CCC[C@H]2[C@]34C1 (some centres undefined) has a reported normalized growth of 1.02

The compound listed as `COc1cc(-c2coc3cc(OCc4ccccc4)c(OC)c(O)c3c2=O)cc(O)c1OC` has a reported normalized growth of 0.951

The compound listed as O=S1OCC2C(CO1)C1(Cl)C(Cl)=C(Cl)C2(Cl)C1(Cl)Cl (centres undefined) has a reported normalized growth of 0.968

The compound listed as `COc1cc(-c2coc3cc(OC)c(OC)c(OC)c3c2=O)cc(OC)c1OC` has a reported normalized growth of 0.977

---

Kindly state normalized growth for each of the entries shown.
- TEST METHOD NOTES: chemical genetic growth profiling, strain panel (AID 1159580);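 also: tested at 20 µM; growth read once vehicle control cultures reached saturation at 30 °C; 1 = growth at the plate median or of vehicle wells; lower values mean less growth of the strain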
- MEASUREMENT CONTEXT: S. cerevisiae deletion strains, growth OD, locus YHR079C, strain IRE1, active compounds read low
Among all 5,500 compounds or so, about 2,000 (36%) were called active. Another 18% or so got no clear call; they are omitted. This is one part of the list.
API doc: respond with a numeric literal and nothing else, no unit.

The molecule listed as `Nc1ccc(N=Nc2ccccc2)c(N)n1` has a reported normalized growth of 0.965

The molecule listed as CC(C)NCC(O)COc1cccc2ccccc12 (centres undefined) has a reported normalized growth of 1.02

The molecule listed as `Cc1onc(-c2c(F)cccc2Cl)c1C(=O)NNc1cc(Cl)cc(Cl)c1` has a reported normalized growth of 0.939

The molecule listed as `CC(C)(C)c1ccc(C(=O)NNc2c(Cl)cccc2Cl)cc1` has a reported normalized growth of 0.885

The molecule listed as `Cc1cccc(Nc2ccccc2C(=O)O)c1C` has a reported normalized growth of 0.883

The molecule listed as COc1cc2c(cc1OC)C1Cc3ccc(OC)c(OC)c3CN1CC2 (centres undefined) has a reported normalized growth of 0.979

The molecule listed as C#CCCCCCCCCCCCC(O)CC(O)COC(C)=O (centres undefined) has a reported normalized growth of 0.969

The molecule listed as `CC1(C)OC(=O)C(=Cc2cccn2-c2ccc(C(F)(F)F)cc2)C(=O)O1` has a reported normalized growth of 0.86

The molecule listed as `NC(N)=NS(=O)(=O)c1ccc(N)cc1` has a reported normalized growth of 0.97

The molecule listed as `C=C1C(=O)O[C@@H]2C[C@@]3(C)CCC[C@H](C)C3=C[C@H]12` has a reported normalized growth of 0.986

The molecule listed as C=CCSCC1Nc2cc(Cl)c(S(N)(=O)=O)cc2S(=O)(=O)N1 (centres undefined) has a reported normalized growth of 1.06

The molecule listed as `CCOC(=O)Nc1nc2ccccc2[nH]1` has a reported normalized growth of 0.976

The molecule listed as C[C@@H]1C(=O)OC2[C@H](O)C34[C@@H]5OC(=O)[C@@]3(O[C@@H]3OC(=O)[C@H](O)[C@@]34[C@H](C(C)(C)C)[C@H]5O)[C@]21O (some centres undefined) has a reported normalized growth of 1.03

The molecule listed as `CC1(C)O[C@H]2[C@H](O)C[C@](O)(C(N)=O)C[C@H]2O1` has a reported normalized growth of 0.99

The molecule listed as C[N+]1(C)C2CC(OC(=O)[C@@H](CO)c3ccccc3)CC1C1OC12 (some centres undefined) has a reported normalized growth of 1.03

The molecule listed as `O=C(/C=C/Sc1nc2ccccc2s1)c1ccc(Cl)cc1` has a reported normalized growth of 0.78

The molecule listed as `Cc1ccc(Cl)c(Nc2ccccc2C(=O)O)c1Cl` has a reported normalized growth of 1.03

The molecule listed as `N[C@@H](CC(=O)N1CCn2c(nnc2C(F)(F)F)C1)Cc1cc(F)c(F)cc1F` has a reported normalized growth of 0.985

The molecule listed as C#CCCCCCCCCCCCC(O)CC(O)CO (centres undefined) has a reported normalized growth of 0.782

The molecule listed as `CC[N+](CC)(CC)CCOc1cccc(OCC[N+](CC)(CC)CC)c1OCC[N+](CC)(CC)CC` has a reported normalized growth of 1.03

The molecule listed as `CCCCCCCCCCCC(=O)NOC(=O)c1c(-c2c(Cl)cccc2Cl)noc1C` has a reported normalized growth of 0.139

The molecule listed as `CCOC(=O)[C@H](CCc1ccccc1)N[C@@H](C)C(=O)N1[C@H](C(=O)O)C[C@@H]2CCC[C@@H]21` has a reported normalized growth of 1

The molecule listed as `Cc1ccc(C)c(OCCCC(C)(C)C(=O)O)c1` has a reported normalized growth of 0.833

The molecule listed as `CC(C)C(=O)Nc1ccc([N+](=O)[O-])c(C(F)(F)F)c1` has a reported normalized growth of 0.964

The molecule listed as `O=C(Nc1ccc(OC(F)(F)F)cc1)N1CCN(c2nc(-c3ccccc3)ns2)CC1` has a reported normalized growth of 0.864

The molecule listed as O=[N+]([O-])c1ccc2c(c1)NC(c1ccc([N+](=O)[O-])s1)O2 (centres undefined) has a reported normalized growth of 0.11

The molecule listed as `CC[C@H](C)C(=O)O[C@H]1C[C@@H](C)C=C2C=C[C@H](C)[C@H](CC[C@@H]3C[C@@H](O)CC(=O)O3)[C@H]21` has a reported normalized growth of 0.992

The molecule listed as `O=c1c2ccccc2[nH]c(=S)n1-c1cccc(C(F)(F)F)c1` has a reported normalized growth of 0.837

The molecule listed as `FC(F)(F)c1cccc(-n2c(CSCc3cccc4ccccc34)n[nH]c2=S)c1` has a reported normalized growth of 1.1

The molecule listed as `Cc1nc(-c2ccc(S(=O)(=O)Nc3ccc(Br)cc3Cl)s2)cs1` has a reported normalized growth of 0.778

The molecule listed as `O=C1OC2(c3ccc(O)cc3Oc3cc(O)ccc32)c2ccccc21` has a reported normalized growth of 0.974

The molecule listed as `CCC(C)(C)C(=O)O[C@H]1C[C@@H](C)C=C2C=C[C@H](C)[C@H](CC[C@@H]3C[C@@H](O)CC(=O)O3)[C@H]21` has a reported normalized growth of 0.948

The molecule listed as `CCNC(=O)CC[C@H](N)C(=O)O` has a reported normalized growth of 1.04

The molecule listed as COC(=O)C(O)c1ccccc1 (centres undefined) has a reported normalized growth of 0.996

The molecule listed as `O=C(NNc1ccc(I)cc1)c1cc(Cl)cc(Cl)c1` has a reported normalized growth of 0.918

The molecule listed as `ClC1=C(C=Nc2ccc(Cl)cc2)CSc2ccc(Cl)cc21` has a reported normalized growth of 0.862

The molecule listed as `Cc1onc(-c2c(F)cccc2Cl)c1C(=O)ON=C1C2CC3CC(C2)CC1C3` has a reported normalized growth of 0.967

The molecule listed as `O=C(O)CN1C(=O)c2cccc3cccc(c23)C1=O` has a reported normalized growth of 0.972

The molecule listed as C=C1C(=O)O[C@@H]2C3O[C@]3(C)CC/C=C(\C)CC[C@@H]12 (some centres undefined) has a reported normalized growth of 0.966

The molecule listed as `O=C1NC(=O)C(=O)C(=O)N1` has a reported normalized growth of 0.971

The molecule listed as `CCOC(=O)c1ccc(O)cc1` has a reported normalized growth of 1.01

The molecule listed as `Cc1ccc(NNC(=O)c2c(C)noc2C)cc1Cl` has a reported normalized growth of 0.964

The molecule listed as `CC(C)(CCC(C)(C)N1C(=O)c2cccc3cccc(c23)C1=O)N1C(=O)c2cccc3cccc(c23)C1=O` has a reported normalized growth of 0.116

The molecule listed as `CCCCOC(=O)c1ccc(O)cc1` has a reported normalized growth of 0.879
